# target-or-test-system: T1, rHuman Erythropoietin R/Fc Chimera, CF (R&D Systems Cat#963-ER) (human, UniProt P19235 25-250)
# T1 construct: Bought recombinant protein; also called EPO R; EPO R/Fc
# T1 sequence (looked up): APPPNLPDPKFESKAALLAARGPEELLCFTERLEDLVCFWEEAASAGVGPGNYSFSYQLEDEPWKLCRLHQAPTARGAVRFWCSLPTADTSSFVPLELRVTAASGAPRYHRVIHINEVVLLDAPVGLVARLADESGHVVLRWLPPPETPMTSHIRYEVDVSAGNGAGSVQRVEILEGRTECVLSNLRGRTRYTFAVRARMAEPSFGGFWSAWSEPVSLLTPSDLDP
# test-method-notes: ECL multispot (MSD) binding assay, antigen spotted on plate;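 note: purified Fab incubated 1 h at 20 °C on antigen spots, detected with TAG-labelled antibody, electrochemiluminescence compared with each well's blank, signal-to-blank ratio ≥4 counted as hit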
endpoint-name: ECL signal
Write the number on its own, no unit after it.

[in] Item under review: Fab VH1-46_IGHD6-6*01_IGHJ1*01 S102A/S103P/S104F/H111F (APFF) & L6_IGKJ1*01 S31D (Fab, V domains shown, Tested as Fab (CH1 with His6/Flag tags, kappa CL) made in E. coli; also called APFF / S31D) VH: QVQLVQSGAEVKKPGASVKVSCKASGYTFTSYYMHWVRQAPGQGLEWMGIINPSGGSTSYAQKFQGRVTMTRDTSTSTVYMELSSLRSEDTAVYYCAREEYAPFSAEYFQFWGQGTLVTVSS VL: EIVLTQSPATLSLSPGERATLSCRASQSVSDYLAWYQQKPGQAPRLLIYDASNRATGIPARFSGSGSGTDFTLTISSLEPEDFAVYYCQQRSNWPPWTFGQGTKVEIKR . Reported ECL signal?
[out] 596

[in] Then this binder: Fab VH1-46_IGHD6-6*01_IGHJ1*01 S102A/S103P/S104F/H111F (APFF) & L6_IGKJ1*01 S31L (Fab, V domains shown, Tested as Fab (CH1 with His6/Flag tags, kappa CL) made in E. coli; also called APFF / S31L) VH: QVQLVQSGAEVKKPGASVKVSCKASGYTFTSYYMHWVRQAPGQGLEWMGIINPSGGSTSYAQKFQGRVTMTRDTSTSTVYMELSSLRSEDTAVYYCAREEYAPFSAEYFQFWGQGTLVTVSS VL: EIVLTQSPATLSLSPGERATLSCRASQSVSLYLAWYQQKPGQAPRLLIYDASNRATGIPARFSGSGSGTDFTLTISSLEPEDFAVYYCQQRSNWPPWTFGQGTKVEIKR
[out] 427

[in] Also Fab VH1-46_IGHD6-6*01_IGHJ1*01 S102A/S103P/S104F/H111F (APFF) & L6_IGKJ1*01 S31I (Fab, V domains shown, Tested as Fab (CH1 with His6/Flag tags, kappa CL) made in E. coli; also called APFF / S31I) VH: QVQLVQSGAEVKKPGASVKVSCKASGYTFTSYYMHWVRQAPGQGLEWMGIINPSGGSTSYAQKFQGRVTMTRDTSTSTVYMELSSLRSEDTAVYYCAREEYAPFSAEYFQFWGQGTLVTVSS VL: EIVLTQSPATLSLSPGERATLSCRASQSVSIYLAWYQQKPGQAPRLLIYDASNRATGIPARFSGSGSGTDFTLTISSLEPEDFAVYYCQQRSNWPPWTFGQGTKVEIKR ?
[out] 500
